Here, each record is paired with measured Binding rat Inh % data.
molecular target: native CB1 receptors (Rattus norvegicus); assay: CB1 receptor rat binding assay ([3H]SR141716A, rat brain membranes); settings: rat brain membranes, [3H]SR141716A
Sequence (P20272 whole entry): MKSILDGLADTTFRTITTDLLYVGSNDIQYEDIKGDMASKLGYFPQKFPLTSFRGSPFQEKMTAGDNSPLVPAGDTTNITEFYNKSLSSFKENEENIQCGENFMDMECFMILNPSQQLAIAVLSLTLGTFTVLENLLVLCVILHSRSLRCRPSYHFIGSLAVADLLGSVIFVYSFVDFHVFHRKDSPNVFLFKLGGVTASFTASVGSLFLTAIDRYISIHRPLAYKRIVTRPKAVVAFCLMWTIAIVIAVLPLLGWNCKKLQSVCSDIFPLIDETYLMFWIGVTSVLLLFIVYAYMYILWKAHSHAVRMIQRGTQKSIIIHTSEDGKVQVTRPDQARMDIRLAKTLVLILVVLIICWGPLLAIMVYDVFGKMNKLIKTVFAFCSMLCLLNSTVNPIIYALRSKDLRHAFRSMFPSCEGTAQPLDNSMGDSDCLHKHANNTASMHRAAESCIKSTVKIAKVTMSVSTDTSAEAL
Field format: number, assumed %, no unit text.

Known results for compounds:
> print(dat)
                                   compound  measured.result
1  CCCCNC(=O)c1cc2c(cc1O)Sc1ccccc1C(c1ccc(Cl)cc1)=N2 [drawing 1410]              103
2  O=C(NCc1ccncc1)c1ccc2c(c1)N=C(c1cccc(Br)c1)c1ccccc1S2 [drawing 1511]               76
3  Cc1ccsc1C1=Nc2cc(C(=O)NCCc3cccnc3)ccc2Sc2ccccc21 [drawing 1521]               93
4  C[C@@H]1CCC[C@H](C)N1NC(=O)c1ccc2c(c1)N=C(c1cccc(F)c1)c1ccccc1S2 [drawing 1261]               91

Challenge: Output Binding rat Inh % of Cc1ccc(CNC(=O)c2ccc3c(c2)N=C(c2sccc2C)c2ccccc2S3)o1 [drawing 1400]
Response given: 102

Challenge: Identify measured Binding rat Inh % associated with CC(C)CNC(=O)c1ccc2c(c1)N=C(c1ccc(F)cn1)c1ccccc1S2 [drawing 1254]
Response given: 97

Challenge: Let me know recorded Binding rat Inh % for O=C(NC1CCCCC1)c1ccc2c(c1)N=C(c1ccc(Cl)cc1)c1ccccc1S2 [drawing 1518] , thanks.
Response given: 96

Challenge: Provide one value: measured Binding rat Inh % of Cc1csc(CNC(=O)c2ccc3c(c2)N=C(c2sccc2C)c2ccccc2S3)c1 [drawing 1255]
Response given: 93

Challenge: Kindly indicate its recorded Binding rat Inh %. Item: O=C(NN1CCCCCC1)c1ccc2c(c1)N=C(c1cccc(Cl)c1)c1ccccc1S2 [drawing 1209]
Response given: 87

Challenge: Supply measured Binding rat Inh % of CCCCNS(=O)(=O)c1ccc2c(c1)N=C(c1ccc(Cl)cc1)c1ccccc1S2 [drawing 1405] in your reply.
Response given: 92

Challenge: Supply measured Binding rat Inh % of CCCCNC(=O)c1ccc2c(c1)N=C(c1ccc(F)cn1)c1ccccc1S2 [drawing 1246] in your reply.
Response given: 87

Challenge: Give the measured Binding rat Inh % for O=C(NN1CCCCCC1)c1ccc2c(c1)N=C(c1ccc(Cl)cc1)c1ccccc1S2 [drawing 1463]
Response given: 82

Challenge: Check the records and state Binding rat Inh % for Cc1csc(CNC(=O)c2ccc3c(c2)N=C(c2ccc(Cl)s2)c2ccccc2S3)c1 [drawing 1232]
Response given: 90

Challenge: Provide one value: measured Binding rat Inh % of O=C(NC1CCCC1)c1ccc2c(c1)N=C(c1cccc(F)c1)c1ccccc1S2 [drawing 1310]
Response given: 82

Challenge: Tell us which Binding rat Inh % value is on record for CC(C)CCNC(=O)c1ccc2c(c1)N=C(c1cccc(F)c1)c1ccccc1S2 [drawing 1240]
Response given: 99

Challenge: Tell me Binding rat Inh % reported for O=C(NN1CCCCC1)c1ccc2c(c1)N=C(C1CCCCC1)c1ccccc1S2 [drawing 1216]
Response given: 94

Challenge: For the compound O=C(NN1CCCCC1)c1ccc2c(c1)N=C(c1ccc(F)cc1)c1ccccc1S2 [drawing 1207] , report Binding rat Inh %.
Response given: 103
